The measured values listed here are drawn from ChEMBL document CHEMBL1201862.

test system: SNB-75; test: NCI tumour cell line growth inhibition, 48 h
Active and inactive are the calls of the source. No stated cut-off is given here; in the data, active = GI50 up to about 1.1 µM and inactive = higher.
// one of active, inactive, no free text

Solved cases below.
{"columns": ["MOLECULE", "LABEL"],
 "data": [
  ["NNC1=NC(=O)NC(=O)C1", "inactive"],
  ["CCC/C(=N\\NC(=S)N1CC2CCC(CC2)C1)c1ccccn1", "active"],
  ["CCCCCCCCCCCCCCCCCCNc1nc(=O)n(C2CC(O)C(COP(=O)(O)OCC3OC(n4ccc(N)nc4=O)C(O)C3O)O2)cc1F (stereo unspecified)", "inactive"],
  ["Cc1cccc2c1C(=O)C(C1OC(=O)c3ccccc31)C2 (stereo unspecified)", "inactive"],
  ["O=C(O)c1c(-c2c3ccc(=O)cc-3oc3cc(O)ccc23)cc2ccccc2c1-c1ccccc1", "inactive"],
  ["C=C(Cl)[C@@](Cl)(CBr)CC[C@@H](Br)C(C)(C)Cl", "active"],
  ["COc1cc([C@@H]2c3cc4c(cc3[C@@H](NCc3cccc(F)c3)C3COC(=O)[C@@H]32)OCO4)cc(OC)c1O (stereo partly specified)", "inactive"],
  ["CC(=O)Oc1ccccc1", "inactive"]
]}

Here's the next entry for you.
Incoming: Per the records of this test, what outcome belongs to O=C([O-])Cc1ccccc1.[Na+] [SODIUM PHENYLACETATE] ?
Outgoing: inactive

====

test system: Malme-3M; experiment: NCI tumour cell line growth inhibition, 48 h
Activity calls are given as the source filed them. No stated cut-off is given here; in the data, active = GI50 up to about 1.1 µM and inactive = higher.
// one of label 1 for active, label 0 for inactive, no free text

Solved cases below.
{"columns": ["COMPOUND", "LABEL"],
 "data": [
  ["O=C(CCN(C(=O)O)S(=O)(=O)c1ccc(NC(=O)c2ccccc2)cc1)Nc1ccccc1", "label 0"],
  ["Oc1cccc(-c2cn3cc(Cl)ccc3n2)c1", "label 0"],
  ["COC1(OC)C2(Cl)C(Cl)=C(Cl)C1(Cl)C1c3ccc(C(C)=O)c4cccc(c34)C12 (centres undefined)", "label 0"],
  ["COC(=O)c1ccc(C)cc1C1CN=NC12Cc1cc(C)c(C)cc1C2=O (centres undefined)", "label 0"],
  ["CN1C(c2ccccc2)CC(=Nc2ccccc2)CC1c1ccccc1 (centres undefined)", "label 0"]
]}

Incoming: Per the records of this test, what outcome belongs to CCc1ccccc1NC(=O)C1=C(C)NC(C)=C(C(=O)Nc2ccccc2CC)C1c1ccccc1Cl ?
Outgoing: label 0

Incoming: Per the records of this test, what outcome belongs to COc1ccc2c3c1OC1C34CCN(C)C(C2)C4=CC(I)C1(OC)OC (centres undefined) ?
Outgoing: label 0

Incoming: Per the records of this test, what outcome belongs to [N-]=[N+]=CC(=O)C1CCCN1C(=O)c1ccccc1 (centres undefined) ?
Outgoing: label 0

====

# GI50 values compiled below
tested on: OVCAR-5; experiment: NCI tumour cell line growth inhibition, 48 h
Activity calls are given as the source filed them. Cut-off read from the data, not from the text of the source: active = GI50 up to about 1.1 µM and inactive = higher.

{"columns": ["COMPOUND", "MEASURED_TARGET", "GI50"],
 "data": [
  ["COc1ccc(/N=C2\\C(=N/c3ccc(OC)cc3)N(S(=O)(=O)c3ccccc3)C(=S)N2c2ccccc2)cc1", "OVCAR-5", "> 100 µM (inactive)"],
  ["O=C(N/N=C(\\C1=Nc2ccc(Cl)cc2NC1O)C(O)/C=C/c1ccccc1)c1ccncc1 (centres undefined)", "OVCAR-5", "> 100 µM (inactive)"],
  ["CC1(C)OC(C(=O)Nc2cc3c4ccccc4ccc3c3ccccc23)C(C(=O)N2CCCCC2)O1 (centres undefined)", "OVCAR-5", "> 100 µM (inactive)"],
  ["CCCCCCCCCCCCCCCCCCOCC(O)COP(=O)(O)OCC1OC(n2cc(F)c(=O)[nH]c2=O)CC1O (centres undefined)", "OVCAR-5", "12.5 µM (inactive)"],
  ["O=C(/C=C/c1cccc([N+](=O)[O-])c1)N1CCN(CCOC(c2ccccc2)c2ccccc2)CC1", "OVCAR-5", "> 100 µM (inactive)"]
]}

Incoming: For the compound CCC/C(Cl)=N\OC(=O)Nc1ccc(OC(F)(F)F)cc1 , what GI50 is on record?
Outgoing: 19.6 µM (inactive)

Incoming: For the compound CC(O)(c1ccccc1)c1nccc2ccccc12 (centres undefined) , what GI50 is on record?
Outgoing: 67.1 µM (inactive)

Incoming: For the compound Nc1c(C(=O)c2ccccc2)[nH]c(NCc2ccccc2)c1C(=S)Nc1ccccc1 , what GI50 is on record?
Outgoing: > 100 µM (inactive)

Incoming: For the compound CC1OC(OC2C[C@](O)(C(=O)CBr)Cc3c(O)c4c(c(O)c32)C(=O)c2ccccc2C4=O)C(F)C(O)C1O (some centres undefined) , what GI50 is on record?
Outgoing: 13.5 µM (inactive)
